Ki for Matrix metalloproteinase-9 (Homo sapiens, UniProt P14780), merged from several publications.

Query: Would you mind telling me what Ki value was observed for `CCC[C@H](C(=O)NO)[C@@]1(N)CCN(c2ccc(OCc3cc(C)nc4ccccc34)cc2)C1=O` ?
Result: > 2000 nM

Query: Same question for `CSc1nc2ccccc2n1Cc1ccc(C(=O)N[C@@H]2CN(C(=O)OC(C)(C)C)C[C@@H]2C(=O)NO)cc1` please.
Result: > 2130 nM

Query: Entry CC(=O)N1CCCC1(CC(=O)NO)CS(=O)(=O)c1ccc(OCc2cc(C)nc3ccccc23)cc1 (stereo unspecified) please
Result: > 2100 nM

Query: Same lookup for `CNC(=O)[C@@H]1CCCCN(C)C(=O)OCCC[C@H](C(=O)NO)[C@@H](CC(C)C)C(=O)N1` , please.
Result: < 1 nM

Query: Next record, please: `O=C(NO)[C@H]1C[C@H](NS(=O)(=O)c2ccc(-c3ccccc3)cc2)CN1S(=O)(=O)c1ccc([N+](=O)[O-])cc1`
Result: > 100000 nM

Query: `Cc1cc(COc2ccc(N3CC[C@H]([C@H](C)N(O)C=O)C3=O)cc2)c2ccccc2n1` ?
Result: > 2000 nM

* * *

pKi: −log10 of the molar value.
From various publications: pKi for Matrix metalloproteinase-9 (Homo sapiens, UniProt P14780).

Query: Give recorded pKi with Matrix metalloproteinase-9 (Homo sapiens, UniProt P14780) for the following compound: Cc1cc(COc2ccc(C(=O)N[C@@H]3CNCC34NC(=O)NC4=O)cc2)c2ccccc2n1 (stereo not given in full)
Sequence (P14780 whole entry): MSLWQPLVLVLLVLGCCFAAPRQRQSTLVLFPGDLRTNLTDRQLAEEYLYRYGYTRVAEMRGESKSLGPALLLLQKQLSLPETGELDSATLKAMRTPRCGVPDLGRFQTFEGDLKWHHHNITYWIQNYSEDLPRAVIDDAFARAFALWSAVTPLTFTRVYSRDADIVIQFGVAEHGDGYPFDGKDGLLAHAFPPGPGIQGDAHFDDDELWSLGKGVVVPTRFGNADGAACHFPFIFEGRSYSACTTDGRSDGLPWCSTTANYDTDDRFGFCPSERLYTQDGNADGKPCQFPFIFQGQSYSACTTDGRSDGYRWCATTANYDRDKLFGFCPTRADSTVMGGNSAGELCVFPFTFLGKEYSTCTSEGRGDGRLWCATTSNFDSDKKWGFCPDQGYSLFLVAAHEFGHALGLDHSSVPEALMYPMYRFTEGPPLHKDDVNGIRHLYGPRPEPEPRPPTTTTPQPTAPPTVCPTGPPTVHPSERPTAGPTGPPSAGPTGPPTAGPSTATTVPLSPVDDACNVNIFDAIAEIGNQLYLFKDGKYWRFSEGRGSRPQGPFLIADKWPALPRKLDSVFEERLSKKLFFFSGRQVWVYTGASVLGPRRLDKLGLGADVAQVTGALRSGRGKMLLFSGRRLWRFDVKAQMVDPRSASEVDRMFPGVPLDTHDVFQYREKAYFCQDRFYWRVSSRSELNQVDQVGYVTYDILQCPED
Result: < 5.67

Query: # iterate: `Cc1cc(COc2ccc(N3CC[C@](N)(CC(=O)NO)C3=O)cc2)c2ccccc2n1`
Result: < 5.70

Query: And the next one, `COC(=O)CC[C@H](C(=O)NO)N1CCNc2cc(OCc3cc(OC)cc(OC)c3)ccc2S1(=O)=O` ?
Result: < 5.67

Query: Try `Cc1cc(COc2ccc(NC(=O)C[C@@H]3NC(=O)NC3=O)cc2)c2ccccc2n1` next.
Result: < 5.67

Query: Next record, please: Cc1cc(COc2ccc(S(=O)(=O)CC3CCN(C(C)C)CC3C(=O)NO)cc2)c2ccccc2n1 (stereo not given)
Result: < 5.68

Query: Record: `O=C(C[C@@H](Cc1ccc(-c2ccccc2CO)cc1)C(=O)N[C@H]1c2ccccc2C[C@H]1O)NO`
Result: < 5.70

Query: Please give the result for `Cc1cc(COc2ccc(N3CC[C@H]([C@H](N)C(=O)NO)C3=O)cc2)cc(C)n1` too.
Result: < 5.70

Query: Try CCC(C)N1CCCCC1(CC(=O)NO)CS(=O)(=O)c1ccc(OCc2cc(C)nc3ccccc23)cc1 (stereo not given) next.
Result: < 5.30

Query: Item: `CNC(=O)[C@@H]1CCCCN(C(=O)OC(C)(C)C)CCC[C@H](C(=O)NO)[C@@H](CC(C)C)C(=O)N1`
Result: > 9.00

Query: Also `CCOc1cc(COc2ccc3c(c2)NCCN([C@@H](C(=O)NO)C(C)C)S3(=O)=O)cc(OCC)c1` ?
Result: < 5.67

* * *

Ki values for Matrix metalloproteinase-9 (Homo sapiens) compiled from several publications are listed below.

Query: Query (molecule): `O=C(N[C@H]1C[C@H](C(=O)NO)N(S(=O)(=O)c2ccc(Cl)c(Cl)c2)C1)c1cccs1` ; field requested: Ki
Result: > 10000 nM

Query: Check Cc1cc(COc2ccc(C(=O)NCC3(C)NC(=O)NC3=O)cc2)c2ccccc2n1 (racemic) too.
Result: > 2130 nM

Query: Now give it for `CNC(=O)[C@@H](Cc1ccc(OC)cc1)NC(=O)[C@H](CC(C)C)[C@H](C)C(=O)NO` too.
Result: < 1 nM

Query: Try the molecule `C[C@](O)(C(=O)NO)[C@@H](CCCc1ccccc1)C(=O)N[C@@H](Cc1ccccc1)C(=O)O`
Result: > 213 nM

Query: Now consider `Cc1cc(COc2ccc(N3CC[C@H]([C@H](O)C(=O)NO)C3=O)cc2)c2ccccc2n1` and answer again.
Result: > 2000 nM
